- Assayed System: Glutamate receptor 1 (Homo sapiens)
- Sequence (P42261 whole entry): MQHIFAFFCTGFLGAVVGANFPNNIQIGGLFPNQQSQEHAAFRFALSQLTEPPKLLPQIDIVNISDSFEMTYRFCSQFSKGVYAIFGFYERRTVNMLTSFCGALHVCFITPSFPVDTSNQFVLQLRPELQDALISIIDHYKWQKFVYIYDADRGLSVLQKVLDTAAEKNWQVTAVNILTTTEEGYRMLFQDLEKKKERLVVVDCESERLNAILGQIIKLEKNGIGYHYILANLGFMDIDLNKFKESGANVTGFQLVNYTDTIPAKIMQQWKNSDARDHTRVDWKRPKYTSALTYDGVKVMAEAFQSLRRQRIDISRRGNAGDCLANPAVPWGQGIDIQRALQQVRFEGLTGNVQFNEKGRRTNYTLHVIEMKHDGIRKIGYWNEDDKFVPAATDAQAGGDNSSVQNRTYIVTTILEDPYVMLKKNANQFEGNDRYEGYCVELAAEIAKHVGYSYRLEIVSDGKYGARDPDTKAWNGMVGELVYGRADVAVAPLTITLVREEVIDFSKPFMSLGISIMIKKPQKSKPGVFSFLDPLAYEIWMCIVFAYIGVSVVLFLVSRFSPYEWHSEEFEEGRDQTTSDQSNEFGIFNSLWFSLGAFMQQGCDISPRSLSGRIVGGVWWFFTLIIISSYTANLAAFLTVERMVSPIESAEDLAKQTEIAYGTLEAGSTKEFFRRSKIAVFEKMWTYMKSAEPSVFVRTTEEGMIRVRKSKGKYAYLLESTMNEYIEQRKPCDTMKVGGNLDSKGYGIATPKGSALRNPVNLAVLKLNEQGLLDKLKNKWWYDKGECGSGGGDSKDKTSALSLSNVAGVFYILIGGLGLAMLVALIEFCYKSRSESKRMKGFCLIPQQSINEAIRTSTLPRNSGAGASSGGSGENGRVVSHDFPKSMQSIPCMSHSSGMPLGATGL
- Procedure Text: Agonist activity at GluA1 (unknown origin)

- Cpd Smiles: "N[C@@H](C[C@@H](C/C=C/c1ccc2ccccc2c1)C(=O)O)C(=O)O"
  EC50: "> 300 µM"

###

- Assayed System: Gamma-aminobutyric acid receptor subunit alpha-5/beta-3/gamma-3 (Homo sapiens, UniProt P28472+P31644+Q99928)
- Sequence (P28472 whole entry): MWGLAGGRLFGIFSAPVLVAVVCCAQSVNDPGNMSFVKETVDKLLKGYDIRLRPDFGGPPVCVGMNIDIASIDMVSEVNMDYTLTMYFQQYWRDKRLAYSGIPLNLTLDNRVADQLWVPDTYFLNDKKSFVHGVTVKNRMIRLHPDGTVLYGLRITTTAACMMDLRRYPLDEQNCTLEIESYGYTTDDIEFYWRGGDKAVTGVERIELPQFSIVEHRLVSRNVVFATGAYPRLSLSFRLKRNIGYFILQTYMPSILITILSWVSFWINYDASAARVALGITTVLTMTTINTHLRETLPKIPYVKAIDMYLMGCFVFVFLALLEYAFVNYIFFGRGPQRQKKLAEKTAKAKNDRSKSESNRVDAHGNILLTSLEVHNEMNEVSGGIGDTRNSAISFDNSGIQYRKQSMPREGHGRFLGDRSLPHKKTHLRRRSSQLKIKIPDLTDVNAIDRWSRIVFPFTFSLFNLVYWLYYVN
- Sequence (Q99928 whole entry): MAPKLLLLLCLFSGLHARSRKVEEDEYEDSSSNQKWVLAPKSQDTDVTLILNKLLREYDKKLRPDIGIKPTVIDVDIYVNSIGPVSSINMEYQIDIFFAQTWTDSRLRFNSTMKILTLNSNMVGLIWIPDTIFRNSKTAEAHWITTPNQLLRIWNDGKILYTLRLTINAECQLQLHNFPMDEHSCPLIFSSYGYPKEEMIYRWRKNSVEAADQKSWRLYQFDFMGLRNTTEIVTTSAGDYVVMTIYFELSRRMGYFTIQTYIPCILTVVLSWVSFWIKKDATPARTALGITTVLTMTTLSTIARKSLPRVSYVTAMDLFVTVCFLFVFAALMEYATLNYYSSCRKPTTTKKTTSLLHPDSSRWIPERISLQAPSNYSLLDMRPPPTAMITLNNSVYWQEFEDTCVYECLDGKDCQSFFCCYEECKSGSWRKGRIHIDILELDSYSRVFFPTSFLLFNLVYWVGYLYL
- Sequence (P31644 whole entry): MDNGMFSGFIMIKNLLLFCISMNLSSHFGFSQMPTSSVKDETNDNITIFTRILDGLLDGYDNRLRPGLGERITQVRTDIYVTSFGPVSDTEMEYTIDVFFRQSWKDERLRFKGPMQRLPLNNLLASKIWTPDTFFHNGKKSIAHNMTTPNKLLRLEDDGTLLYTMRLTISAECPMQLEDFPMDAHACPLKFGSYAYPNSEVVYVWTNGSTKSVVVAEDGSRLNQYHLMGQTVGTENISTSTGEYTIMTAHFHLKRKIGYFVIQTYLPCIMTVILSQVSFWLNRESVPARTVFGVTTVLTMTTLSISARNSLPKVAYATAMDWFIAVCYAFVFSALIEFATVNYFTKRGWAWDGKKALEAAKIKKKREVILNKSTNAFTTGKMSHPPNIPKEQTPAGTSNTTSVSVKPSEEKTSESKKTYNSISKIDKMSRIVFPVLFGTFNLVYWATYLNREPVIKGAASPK
- Procedure Text: Modulation of human GABAA alpha5beta3gamma3 expressed in xenopus oocytes assessed as potentiation of GABA-evoked chloride currents
Measured Property: EC50

- Compound: "CCN(C(C)=O)c1cccc(-c2ccnc3c(C#N)cnn23)c1 [ZALEPLON]"
  Result: "> 1000 nM"

###

- Assayed System: Potassium voltage-gated channel subfamily KQT member 4 (Homo sapiens)
- Sequence (P56696 whole entry): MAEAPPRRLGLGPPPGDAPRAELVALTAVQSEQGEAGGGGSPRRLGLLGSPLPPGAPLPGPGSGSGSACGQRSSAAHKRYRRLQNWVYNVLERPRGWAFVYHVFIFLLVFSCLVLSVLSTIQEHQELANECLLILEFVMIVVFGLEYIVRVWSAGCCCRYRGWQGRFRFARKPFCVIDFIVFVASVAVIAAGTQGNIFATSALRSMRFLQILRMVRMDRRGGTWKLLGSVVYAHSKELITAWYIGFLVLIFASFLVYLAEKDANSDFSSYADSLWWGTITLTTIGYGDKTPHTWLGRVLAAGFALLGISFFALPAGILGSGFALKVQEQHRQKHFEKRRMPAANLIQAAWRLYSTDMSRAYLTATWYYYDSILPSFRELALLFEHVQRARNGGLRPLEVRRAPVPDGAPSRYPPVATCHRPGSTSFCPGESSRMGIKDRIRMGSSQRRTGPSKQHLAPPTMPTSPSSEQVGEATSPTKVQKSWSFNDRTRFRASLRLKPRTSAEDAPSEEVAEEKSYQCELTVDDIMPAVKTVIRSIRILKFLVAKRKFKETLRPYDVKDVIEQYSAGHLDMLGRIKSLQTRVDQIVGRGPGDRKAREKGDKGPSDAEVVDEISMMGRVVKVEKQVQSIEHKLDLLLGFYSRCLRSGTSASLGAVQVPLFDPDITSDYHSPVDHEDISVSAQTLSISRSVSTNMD
- Procedure Text: Positive modulatory activity at voltage-gated K channel 7.4 (unknown origin)
Measured Property: EC50 (µM)

- Cpd Smiles: "COc1ccc(Cl)cc1[C@]1(F)C(=O)Nc2cc(C(F)(F)F)ccc21"
  Measured Property: "EC50"
  Readout Number: 2.4

###

- Assayed System: Sodium channel protein type 1 subunit alpha (Homo sapiens)
- Procedure Text: Inhibition of voltage-gated Na channel 1.1 (unknown origin)

- Molecule: "NC(=O)C(c1ccccc1)(c1ccc(F)cc1)c1ccc(F)cc1 [SENICAPOC]"
  IC50: "> 1000 nM"

###

- Assayed System: Sodium channel protein type 10 subunit alpha (Rattus norvegicus)
- Procedure Text: Binding affinity to voltage-gated Na channel 1.8 in Sprague-Dawley rat L4/L5 DRG neurons by patch-clamp technique
Measured Property: IC50

- Compound: "COC[C@@H](NC(C)=O)C(=O)NCc1ccccc1 [LACOSAMIDE]"
  Result: "16 µM"

###

- Assayed System: Sodium channel protein type 3 subunit alpha (Rattus norvegicus, UniProt P08104)
- Procedure Text: Inhibition of rat voltage-gated Na channel 1.3 in dorsal root ganglion neurons by patch clamp technique
- Format: tissue-based

- Cpd Smiles: "O=C1[C@@H](N2CC[C@H](c3cc(Cl)cc(Cl)c3)C2)CCN1c1ccc(S(=O)(=O)Nc2nccs2)cc1"
  Assayed System: "Sodium channel protein type 3 subunit alpha (Rattus norvegicus, UniProt P08104)"
  IC50: "< 2 µM"

###

- Assayed System: Sodium channel protein type 5 subunit alpha (Homo sapiens)
- Sequence (Q14524 whole entry): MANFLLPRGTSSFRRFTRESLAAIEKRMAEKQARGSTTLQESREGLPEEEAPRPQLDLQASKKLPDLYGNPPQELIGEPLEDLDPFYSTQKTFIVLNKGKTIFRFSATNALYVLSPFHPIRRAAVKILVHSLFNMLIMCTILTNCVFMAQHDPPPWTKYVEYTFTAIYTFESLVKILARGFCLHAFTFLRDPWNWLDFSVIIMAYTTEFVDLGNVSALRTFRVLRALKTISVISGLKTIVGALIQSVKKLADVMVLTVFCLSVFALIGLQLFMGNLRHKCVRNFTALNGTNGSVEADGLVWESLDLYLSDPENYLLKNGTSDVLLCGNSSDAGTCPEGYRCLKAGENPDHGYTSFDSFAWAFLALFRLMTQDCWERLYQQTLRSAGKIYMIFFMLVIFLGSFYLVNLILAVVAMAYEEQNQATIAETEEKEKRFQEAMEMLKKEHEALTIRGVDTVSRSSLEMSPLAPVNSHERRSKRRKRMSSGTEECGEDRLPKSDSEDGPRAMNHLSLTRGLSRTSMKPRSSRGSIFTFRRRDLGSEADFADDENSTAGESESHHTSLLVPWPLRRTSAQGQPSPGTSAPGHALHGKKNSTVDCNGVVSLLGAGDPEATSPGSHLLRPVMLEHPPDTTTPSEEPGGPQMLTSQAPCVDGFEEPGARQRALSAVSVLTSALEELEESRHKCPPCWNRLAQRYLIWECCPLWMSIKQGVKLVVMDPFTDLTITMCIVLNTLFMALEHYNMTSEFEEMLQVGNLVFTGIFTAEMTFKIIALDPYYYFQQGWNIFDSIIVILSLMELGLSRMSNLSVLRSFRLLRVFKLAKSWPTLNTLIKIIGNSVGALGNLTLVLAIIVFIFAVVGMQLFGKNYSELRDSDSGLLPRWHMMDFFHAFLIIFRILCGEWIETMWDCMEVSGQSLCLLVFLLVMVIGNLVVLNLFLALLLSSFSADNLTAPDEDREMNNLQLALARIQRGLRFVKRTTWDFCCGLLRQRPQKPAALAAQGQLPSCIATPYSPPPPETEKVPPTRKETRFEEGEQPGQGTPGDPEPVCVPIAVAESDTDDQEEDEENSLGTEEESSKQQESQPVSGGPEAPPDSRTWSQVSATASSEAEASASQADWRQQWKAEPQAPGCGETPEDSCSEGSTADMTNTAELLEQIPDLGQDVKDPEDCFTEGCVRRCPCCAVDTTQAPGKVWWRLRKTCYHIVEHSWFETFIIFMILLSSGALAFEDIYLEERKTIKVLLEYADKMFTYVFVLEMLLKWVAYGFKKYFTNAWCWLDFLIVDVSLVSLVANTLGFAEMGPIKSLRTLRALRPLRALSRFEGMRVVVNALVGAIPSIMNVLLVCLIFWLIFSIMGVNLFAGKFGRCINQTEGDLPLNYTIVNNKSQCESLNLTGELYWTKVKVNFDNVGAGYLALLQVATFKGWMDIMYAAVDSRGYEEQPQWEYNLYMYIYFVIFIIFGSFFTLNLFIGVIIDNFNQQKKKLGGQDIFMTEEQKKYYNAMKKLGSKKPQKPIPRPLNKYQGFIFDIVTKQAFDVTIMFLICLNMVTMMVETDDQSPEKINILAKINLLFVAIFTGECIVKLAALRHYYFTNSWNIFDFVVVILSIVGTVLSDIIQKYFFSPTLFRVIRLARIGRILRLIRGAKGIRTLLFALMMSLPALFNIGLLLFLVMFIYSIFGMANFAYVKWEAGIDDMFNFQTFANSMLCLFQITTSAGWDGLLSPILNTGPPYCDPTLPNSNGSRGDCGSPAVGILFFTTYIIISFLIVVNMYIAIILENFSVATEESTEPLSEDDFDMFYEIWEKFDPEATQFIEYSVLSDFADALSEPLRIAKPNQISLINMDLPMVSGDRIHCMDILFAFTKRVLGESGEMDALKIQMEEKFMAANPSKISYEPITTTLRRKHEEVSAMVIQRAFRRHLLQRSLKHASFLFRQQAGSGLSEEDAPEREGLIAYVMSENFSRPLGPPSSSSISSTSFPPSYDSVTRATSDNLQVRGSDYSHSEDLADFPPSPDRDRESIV
- Procedure Text: Inhibition of human voltage-gated Na channel 1.5 by cell based patch clamp technique

- Cpd Smiles: "COc1cnc(-c2cccc3c2C[C@H](NC(=O)c2ccc(COCC(F)(F)F)nc2)CO3)cn1"
  IC50 (µM): 13

###

- Assayed System: Transient receptor potential cation channel subfamily V member 4 (Homo sapiens, UniProt Q9HBA0)

- Cpd Smiles: "CC(C)NCCN(C(C)C)S(=O)(=O)c1ccc(Cl)cc1Cl"
  IC50 [µM]: 2.3

###

- Assayed System: Acid-sensing ion channel 3 (Rattus norvegicus)
- Sequence (O35240 whole entry): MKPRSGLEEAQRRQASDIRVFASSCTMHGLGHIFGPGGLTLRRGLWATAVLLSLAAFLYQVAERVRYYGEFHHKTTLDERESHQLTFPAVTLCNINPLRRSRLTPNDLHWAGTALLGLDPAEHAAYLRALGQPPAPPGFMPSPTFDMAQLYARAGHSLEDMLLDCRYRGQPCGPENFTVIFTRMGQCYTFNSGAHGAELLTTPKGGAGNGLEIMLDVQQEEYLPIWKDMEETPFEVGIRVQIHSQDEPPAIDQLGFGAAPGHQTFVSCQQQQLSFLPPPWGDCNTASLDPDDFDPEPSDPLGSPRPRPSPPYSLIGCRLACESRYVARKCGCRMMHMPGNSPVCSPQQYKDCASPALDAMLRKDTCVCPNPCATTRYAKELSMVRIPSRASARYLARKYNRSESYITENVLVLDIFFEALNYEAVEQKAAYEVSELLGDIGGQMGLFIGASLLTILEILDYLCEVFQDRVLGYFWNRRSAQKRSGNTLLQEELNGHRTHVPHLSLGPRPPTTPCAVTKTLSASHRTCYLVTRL

- Compound: "CC(C)C1c2cc(C3CC3c3ccc4cc(C(=N)N)ccc4c3)ccc2CCN1C (stereo unspecified)"
  Assayed System: "Acid-sensing ion channel 3 (Rattus norvegicus)"
  IC50 [µM]: 9.5
